// data source = PubChem BioAssay AID1851

# Target Or System: Cytochrome P450 2D6 (Homo sapiens)
# Experiment: Cytochrome panel assay with activity outcomes
# Reported Conditions: recombinant CYP, pro-luciferin dealkylation, luminescence, p450-cyp2d6; series mostly up to 57.1 µM
The campaign covered roughly 16,000 compounds. About 2,600 (16%) were called active. About 20% were inconclusive and are not listed. Calls follow the shape of the dose curve; as a rule, active = well fitted curve in the direction sought with a large enough effect; inconclusive = small, poorly fitted or top-dose-only effect, or effect the other way; inactive = no such curve, though single readings can be large or run the other way. The list is a sample of the results.
Use one of these outcomes when replying: active, inactive

Which outcome did this test record for the compound COc1cccc(-c2nccc(NCc3ccccc3)n2)c1 ?
active

Which outcome did this test record for the compound COc1cccc(Nc2ncc3nc(-c4ccccc4)c(=O)n(Cc4cccs4)c3n2)c1 ?
inactive

Which outcome did this test record for the compound CCN1C(=O)C(CC(=O)Nc2ccc(OC)cc2)N(Cc2cccnc2)C1=S (stereo not given) ?
inactive

Which outcome did this test record for the compound CN1C(=O)C(CC(=O)Nc2ccc(F)cc2)N(CCCc2ccccc2)C1=S (stereo not given) ?
active

Which outcome did this test record for the compound CCN1C(=O)C(CC(=O)Nc2ccc(Br)cc2)N(CCCc2ccccc2)C1=S (stereo not given) ?
active

Which outcome did this test record for the compound O=C(CC1C(=O)N(c2ccc(Cl)cc2)C(=S)N1CCc1ccncc1)Nc1ccc(F)cc1 (stereo not given) ?
active

Which outcome did this test record for the compound COc1ccc(-c2nc3cnc(Nc4cccc(OC)c4)nc3n(Cc3cccs3)c2=O)cc1 ?
inactive

Which outcome did this test record for the compound CCn1c(C)nc2cc(S(=O)(=O)C(F)F)ccc21 ?
inactive

Which outcome did this test record for the compound COc1cccc(-c2nccc(NCc3cccc(C)c3)n2)c1 ?
active

Which outcome did this test record for the compound CC(C)C(NS(=O)(=O)c1cccc2nsnc12)C(=O)N1CCc2ccccc2C1 (stereo not given) ?
inactive

###

# Target Or System: Cytochrome P450 2D6 (Homo sapiens) (UniProt P10635)
# Sequence (P10635 whole entry, looked up): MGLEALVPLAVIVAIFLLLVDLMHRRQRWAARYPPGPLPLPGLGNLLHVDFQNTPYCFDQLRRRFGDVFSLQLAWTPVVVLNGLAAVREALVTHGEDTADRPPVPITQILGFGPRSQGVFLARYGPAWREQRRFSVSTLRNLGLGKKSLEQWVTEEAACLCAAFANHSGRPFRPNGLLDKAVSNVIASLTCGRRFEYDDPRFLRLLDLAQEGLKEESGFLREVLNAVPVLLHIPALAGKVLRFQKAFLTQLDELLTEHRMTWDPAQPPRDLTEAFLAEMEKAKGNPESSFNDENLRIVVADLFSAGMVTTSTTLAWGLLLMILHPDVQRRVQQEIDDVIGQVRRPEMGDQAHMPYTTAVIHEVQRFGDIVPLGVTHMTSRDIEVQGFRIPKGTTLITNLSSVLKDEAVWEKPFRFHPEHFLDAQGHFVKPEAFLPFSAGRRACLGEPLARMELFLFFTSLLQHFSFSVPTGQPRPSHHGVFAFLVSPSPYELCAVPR
# Experiment: Cytochrome panel assay with activity outcomes
# Reported Conditions: recombinant CYP, pro-luciferin dealkylation, luminescence, p450-cyp2d6; series mostly up to 57.1 µM
Hit rate of the full screen: of about 16,000 compounds, about 2,600 (16%) were called active. Roughly 20% stayed inconclusive and do not appear here. Calls come from the whole dose curve; as a rule, active = well fitted curve in the direction sought with a large enough effect; inconclusive = small, poorly fitted or top-dose-only effect, or effect the other way; inactive = no such curve, though single readings can be large or run the other way. These entries were drawn from the full list.
Use one of these outcomes when replying: active, inactive

> print(dat)
                                   molecule     label
1  Cc1cccc(Cc2c(C)nc3nc(SCC(=O)NCc4ccco4)nn3c2C)c1  inactive
2  O=c1c(-c2cc(F)cc(F)c2)nc2cncnc2n1Cc1ccccc1Cl  inactive
3      CC(C)=C1C(=O)NN(c2ccc(F)c(Cl)c2)C1=O  inactive
4  CC(Oc1ccc(-c2ccccc2)c(F)c1)c1ccn(S(=O)(=O)c2ccc(Cl)cc2)n1 (configuration not stated)  inactive
5   CC1(C)CCCN(C(=O)N2c3ccccc3Sc3ccccc32)C1  inactive

Which outcome did this test record for the molecule COc1ccc(NC(=O)c2cc3n(n2)C(C(F)(F)F)CC(c2ccc4c(c2)OCO4)N3)cc1OC (configuration not stated) ?
inactive

Which outcome did this test record for the molecule Cc1cccc(CSCCNC(=O)c2ccc(N(C)S(=O)(=O)c3ccccc3)cc2)c1 ?
active

###

# Target Or System: Cytochrome P450 2D6 (Homo sapiens) (UniProt P10635)
# Experiment: Cytochrome panel assay with activity outcomes
# Reported Conditions: recombinant CYP, pro-luciferin dealkylation, luminescence, p450-cyp2d6; series mostly up to 57.1 µM
Screen size: about 16,000 compounds; about 2,600 (16%) were called active. Inconclusive results (about 20%) are left out. A selection follows.
Readout Kind: AC50

Reference set (10 entries):
Compound	Assay Value
CCOc1ccc(NC(=O)c2ccc(Br)o2)c([N+](=O)[O-])c1	inactive
Cc1c2c(nc3ccccc13)-c1cccc(=O)n1C2	inactive
COCCCNC(=O)c1c(NC(=O)c2cccs2)sc2c1CCCC2	inactive
Cc1ccc(OCC(=O)NC2=NCCS2)cc1	inactive
Cc1cc(Cl)ccc1Oc1ncc(-c2ccc(Cl)cc2)cn1	inactive
CCOc1ccc(C(C)=O)cc1N1C(=O)C2C(C1=O)C1C=CC2C12CC2 (stereo not given)	inactive
CN(Cc1ccco1)c1cc(-c2ccoc2)ncn1	inactive
CCOc1ccc(N2C(=O)C3C4C=CC(CC4)C3C2=O)c([N+](=O)[O-])c1 (stereo not given)	11.2 µM (active)
c1ccc(SC(Sc2ccccc2)c2ccc3c(c2)OCO3)cc1	3.16 µM (active)
CN(CC(=O)Nc1ccc(F)c(F)c1)S(=O)(=O)c1cccc2nsnc12	inactive

Below is a list of compounds. For each, state its recorded AC50.
1. C[C@H]1[C@@H](O)[C@@H](C)\C=C/C=C\C=C/C=C\C=C/C=C\C=C/[C@@H](O[C@H]2O[C@@H](C)[C@@H](O)[C@@H](N)[C@@H]2O)C[C@@H]2O[C@](O)(C[C@@H](O)C[C@@H](O)[C@@H](O)CC[C@@H](O)C[C@@H](O)CC(=O)O[C@H]1C)C[C@@H](O)[C@H]2C(=O)O (stereo in doubt)
2. CN(C)C(=O)c1ccc(-c2cc(N(C)Cc3ccco3)ncn2)cc1
3. CNc1cc(NS(=O)(=O)c2ccc(N)cc2)nc(NC)n1
4. Cn1cc(/C=N/n2cnc3scc(-c4ccccc4)c3c2=O)c2ccccc21

["inactive", "inactive", "inactive", "inactive"]

Below is a list of compounds. For each, state its recorded AC50.
1. CC(C)(C)c1cc2cccnc2n1Cc1cccc(F)c1
2. CN(C)c1ccc(-c2cc(N(C)Cc3ccco3)ncn2)cc1
3. CCOC(=O)N/N=C(/C)c1ccc([N+](=O)[O-])o1
4. CC(=O)c1cn(CCCCCCCCCCn2cc(C(C)=O)c(=O)[nH]c2=O)c(=O)[nH]c1=O
5. CC1(C)S[C@@H]2[C@H](NC(=O)[C@@H](NC(=O)N3CCNC3=O)c3ccccc3)C(=O)N2[C@H]1C(=O)O
6. COc1ccc2c(c1)CCCC21NC(=O)N(CC(N)=O)C1=O (stereo not given)

["1.26 µM (active)", "7.94 µM (active)", "inactive", "inactive", "inactive", "inactive"]
